Listed here: items and their measured EC50.
TEST_TARGET: Serine/threonine-protein kinase 26 (Homo sapiens)
Sequence (Q9P289 whole entry): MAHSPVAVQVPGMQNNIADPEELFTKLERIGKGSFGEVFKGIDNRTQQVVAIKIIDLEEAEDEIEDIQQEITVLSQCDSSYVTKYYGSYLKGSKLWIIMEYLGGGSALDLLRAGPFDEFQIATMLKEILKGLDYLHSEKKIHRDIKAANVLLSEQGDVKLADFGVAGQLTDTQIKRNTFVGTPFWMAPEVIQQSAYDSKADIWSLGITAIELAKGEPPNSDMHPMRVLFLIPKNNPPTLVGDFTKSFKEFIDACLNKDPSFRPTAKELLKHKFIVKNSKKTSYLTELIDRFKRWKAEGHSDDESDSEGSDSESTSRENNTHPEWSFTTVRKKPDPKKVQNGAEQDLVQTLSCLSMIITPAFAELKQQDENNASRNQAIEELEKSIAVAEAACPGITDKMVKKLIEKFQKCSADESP
TEST_DESCRIPTION: Binding affinity to C-terminal full length human MST4 expressed in intact HEK293T cells incubated for 2 hrs by NanoBRET assay
Type: cell-based

O=C1NCCCCCCNc2ncc(Cl)c(n2)Nc2cc1[nH]n2 | > 50 µM
O=C1NCCOCCNc2ncc(Cl)c(n2)Nc2cc1[nH]n2 | > 50 µM
N#CCc1ccc(Nc2nccc(Nc3cc(C4CC4)[nH]n3)n2)cc1 | 4.84 µM

Below: the item to evaluate.
Give EC50 for the following compound: `O=C1NCCCCCNc2ncc(Cl)c(n2)Nc2cc1[nH]n2`
> 50 µM

----------
TEST_TARGET: Serine/threonine-protein kinase 4 (Homo sapiens) (UniProt Q13043)
Sequence (whole entry): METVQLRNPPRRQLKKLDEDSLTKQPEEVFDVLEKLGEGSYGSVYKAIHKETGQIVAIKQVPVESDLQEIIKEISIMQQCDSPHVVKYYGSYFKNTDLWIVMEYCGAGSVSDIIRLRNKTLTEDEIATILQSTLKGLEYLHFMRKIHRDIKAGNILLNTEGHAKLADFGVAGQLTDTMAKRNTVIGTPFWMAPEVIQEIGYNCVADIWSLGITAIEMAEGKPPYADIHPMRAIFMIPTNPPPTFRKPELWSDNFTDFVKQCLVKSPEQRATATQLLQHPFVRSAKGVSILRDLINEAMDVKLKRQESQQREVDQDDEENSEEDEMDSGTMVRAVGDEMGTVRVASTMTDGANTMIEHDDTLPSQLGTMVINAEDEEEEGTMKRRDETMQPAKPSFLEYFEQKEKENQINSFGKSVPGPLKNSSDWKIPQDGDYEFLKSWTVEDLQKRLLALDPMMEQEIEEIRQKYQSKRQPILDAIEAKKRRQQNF
ASSAY_CONTEXT: dose 10.0 µM
Description: Binding affinity to recombinant MST1 (unknown origin) kinase domain assessed as thermal stabilization by measuring change in melting temperature at 10 uM by DSF analysis
This section presents compounds with their documented ΔTm values.
Express your answer as a number followed by its unit.

Below are worked cases with known answers.
O=C1NCCCCCCNc2nc(c3ccccc3n2)Nc2cc1[nH]n2 | 0.7 °C
O=C1NCCCCCNc2nc(c3ccccc3n2)Nc2cc1[nH]n2 | 1.4 °C

Item `N#CCc1ccc(Nc2nccc(Nc3cc(C4CC4)[nH]n3)n2)cc1` : provide ΔTm
9.6 °C

----------
TEST_TARGET: Serine/threonine-protein kinase 3 (Homo sapiens) (UniProt Q13188)
Sequence (Q13188 whole entry): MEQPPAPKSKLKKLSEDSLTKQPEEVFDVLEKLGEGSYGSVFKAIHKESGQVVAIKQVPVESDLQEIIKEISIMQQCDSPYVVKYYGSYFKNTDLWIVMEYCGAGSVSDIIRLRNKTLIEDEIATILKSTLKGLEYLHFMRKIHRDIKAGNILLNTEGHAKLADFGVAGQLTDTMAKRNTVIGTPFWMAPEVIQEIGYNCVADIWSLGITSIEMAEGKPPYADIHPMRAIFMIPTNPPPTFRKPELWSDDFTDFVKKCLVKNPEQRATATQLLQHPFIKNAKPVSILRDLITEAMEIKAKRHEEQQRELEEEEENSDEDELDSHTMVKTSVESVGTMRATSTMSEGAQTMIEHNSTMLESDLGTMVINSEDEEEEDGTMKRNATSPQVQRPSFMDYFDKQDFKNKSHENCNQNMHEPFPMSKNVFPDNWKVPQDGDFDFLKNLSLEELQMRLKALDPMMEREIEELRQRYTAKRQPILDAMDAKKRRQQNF
ASSAY_CONTEXT: dose 10.0 µM
Description: Binding affinity to recombinant MST2 (unknown origin) kinase domain assessed as thermal stabilization by measuring change in melting temperature at 10 uM by DSF analysis
READOUT_KIND: ΔTm
Field: value (include unit after the number)

Provide one value: measured ΔTm of `O=C1NCCCCCCNc2nc(c3ccccc3n2)Nc2cc1[nH]n2`
0.4 °C

Tell me measured ΔTm for `O=C1NCCOCCNc2ncc(Cl)c(n2)Nc2cc1[nH]n2` please.
0.6 °C

----------
Recorded measurements of EC50, one per entry
TEST_TARGET: Serine/threonine-protein kinase 24 (Homo sapiens)
Sequence (Q9Y6E0 whole entry): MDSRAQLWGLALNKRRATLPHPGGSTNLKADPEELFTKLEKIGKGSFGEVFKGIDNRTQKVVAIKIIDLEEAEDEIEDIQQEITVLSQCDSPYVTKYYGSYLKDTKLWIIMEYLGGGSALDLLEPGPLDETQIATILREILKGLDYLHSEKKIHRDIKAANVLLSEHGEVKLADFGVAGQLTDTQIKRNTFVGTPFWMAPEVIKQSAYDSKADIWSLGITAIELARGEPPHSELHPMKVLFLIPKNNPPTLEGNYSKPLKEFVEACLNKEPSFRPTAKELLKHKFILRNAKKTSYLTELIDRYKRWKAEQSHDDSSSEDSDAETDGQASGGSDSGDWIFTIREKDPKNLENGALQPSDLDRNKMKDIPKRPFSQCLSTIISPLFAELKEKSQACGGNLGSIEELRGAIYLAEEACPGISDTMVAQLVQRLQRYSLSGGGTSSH
TEST_DESCRIPTION: Binding affinity to C-terminal full length human MST3 expressed in permeabilized HEK293T cells incubated for 2 hrs by NanoBRET assay
Type: cell-based
Please state the figure in µM; there is no need to write the unit.

O=C1NCCOCCNc2nc(c3ccccc3n2)Nc2cc1[nH]n2 | 1.23

Name the recorded EC50 of `O=C1NCCCCCNc2ncc(Cl)c(n2)Nc2cc1[nH]n2` , assay system Serine/threonine-protein kinase 24 (Homo sapiens).
2.67

Fetch value of EC50 on Serine/threonine-protein kinase 24 (Homo sapiens) for `O=C1NCCc2ccc(cc2)Nc2nc(c3ccccc3n2)Nc2cc1[nH]n2` .
1.46

// fetch EC50; item: `O=C1NCCc2cccc(c2)Nc2ncc(Cl)c(n2)Nc2cc1[nH]n2` ; system: Serine/threonine-protein kinase 24 (Homo sapiens)
8.53

Determine reported EC50 for `O=C1NCCCCCCNc2ncc(Cl)c(n2)Nc2cc1[nH]n2` ; test system: Serine/threonine-protein kinase 24 (Homo sapiens).
21.9

System Serine/threonine-protein kinase 24 (Homo sapiens). Read-out EC50. Item `O=C1NCCc2cccc(c2)Nc2nc(c3ccccc3n2)Nc2cc1[nH]n2` . Report value.
0.92

Give the observed EC50 of `Cc1cnc2nc1Nc1cc([nH]n1)C(=O)NCCc1ccc(cc1)N2` for Serine/threonine-protein kinase 24 (Homo sapiens).
38.3
